Values compiled from the supplement of paper PMC10307832.

Can you tell me relative viability for the items I'm about to list?
system: HCC-44; assay: relative viability (nuclei count vs DMSO), 5 days (fraction); higher = more cells survive; settings: first compound 0.253 µM
Lab note: jot down the number only; don't add units.

## Task Return value of relative viability for input Nc1cccc2c1CN(C1CCC(=O)NC1=O)C2=O (stereo not drawn) [Lenalidomide] + Cc1cc(Nc2cc(N3CCN(C)CC3)nc(Sc3ccc(NC(=O)C4CC4)cc3)n2)n[nH]1 [Tozasertib] (partner 0.1 µM) , no commentary.
## Result 0.886

## Task Return value of relative viability for input Nc1cccc2c1CN(C1CCC(=O)NC1=O)C2=O (stereo not drawn) [Lenalidomide] + O=C(CCCCCCC(=O)Nc1ccccc1)NO [Vorinostat] (partner 1 µM) , no commentary.
## Result 1.05

## Task Return value of relative viability for input Nc1cccc2c1CN(C1CCC(=O)NC1=O)C2=O (stereo not drawn) [Lenalidomide] + COc1cccc2cc(-c3nc([C@H]4CC[C@H](C(=O)O)CC4)n4ncnc(N)c34)[nH]c12 [OSI-027] (partner 0.5 µM) , no commentary.
## Result 0.636

###

test system: NCI-H1666; assay: relative viability (nuclei count vs DMSO), 5 days (fraction); higher = more cells survive; conditions: first compound 0.003162 µM
MEASUREMENT TYPE: relative viability
Lab note: jot down the number only; don't add units.

## Task Return value of relative viability for input Cc1cn(-c2cc(NC(=O)c3ccc(C)c(Nc4nccc(-c5cccnc5)n4)c3)cc(C(F)(F)F)c2)cn1 [Nilotinib] + C[C@@H](Oc1cc(-c2cnn(C3CCNCC3)c2)cnc1N)c1c(Cl)ccc(F)c1Cl [Crizotinib] (partner 1 µM) , no commentary.
## Result 0.983

## Task Return value of relative viability for input Cc1cn(-c2cc(NC(=O)c3ccc(C)c(Nc4nccc(-c5cccnc5)n4)c3)cc(C(F)(F)F)c2)cn1 [Nilotinib] + CC(=O)Nc1cccc(-n2c(=O)n(C3CC3)c(=O)c3c(Nc4ccc(I)cc4F)n(C)c(=O)c(C)c32)c1 [Trametinib] (partner 0.02 µM) , no commentary.
## Result 0.689

## Task Return value of relative viability for input Cc1cn(-c2cc(NC(=O)c3ccc(C)c(Nc4nccc(-c5cccnc5)n4)c3)cc(C(F)(F)F)c2)cn1 [Nilotinib] + COc1cc2c(Oc3ccc(NC(=O)C4(C(=O)Nc5ccc(F)cc5)CC4)cc3F)ccnc2cc1OCCCN1CCOCC1 [Foretinib] (partner 0.25 µM) , no commentary.
## Result 0.996

## Task Return value of relative viability for input Cc1cn(-c2cc(NC(=O)c3ccc(C)c(Nc4nccc(-c5cccnc5)n4)c3)cc(C(F)(F)F)c2)cn1 [Nilotinib] + CCNC(=O)c1noc(-c2cc(C(C)C)c(O)cc2O)c1-c1ccc(CN2CCOCC2)cc1 [Luminespib] (partner 0.01 µM) , no commentary.
## Result 1.01

###

tested on: A549; experiment: relative viability (nuclei count vs DMSO), 5 days (fraction); higher = more cells survive; settings: first compound 0.06325 µM
Can you tell me relative viability for the items I'm about to list?

## Task Return value of relative viability for input CCNC(=O)c1noc(-c2cc(C(C)C)c(O)cc2O)c1-c1ccc(CN2CCOCC2)cc1 [Luminespib] + Nc1ncn([C@H]2C[C@H](O)[C@@H](CO)O2)c(=O)n1 [Decitabine] (partner 2 µM) , no commentary.
## Result 0.0306

## Task Return value of relative viability for input CCNC(=O)c1noc(-c2cc(C(C)C)c(O)cc2O)c1-c1ccc(CN2CCOCC2)cc1 [Luminespib] + C[C@@H](Oc1cc(-c2cnn(C3CCNCC3)c2)cnc1N)c1c(Cl)ccc(F)c1Cl [Crizotinib] (partner 1 µM) , no commentary.
## Result 0.0411

###

Can you tell me relative viability for the items I'm about to list?
system: NCI-H1666; test: relative viability (nuclei count vs DMSO), 5 days (fraction); higher = more cells survive; settings: first compound 6.325 µM
Lab note: jot down the number only; don't add units.

## Task Return value of relative viability for input Cc1csc(=NC2CCCCC2)n1/N=C/c1ccc(O)c(O)c1O [MIM1] + O=C(CCCCCCC(=O)Nc1ccccc1)NO [Vorinostat] (partner 1 µM) , no commentary.
## Result 0.769

## Task Return value of relative viability for input Cc1csc(=NC2CCCCC2)n1/N=C/c1ccc(O)c(O)c1O [MIM1] + CCNC(=O)c1noc(-c2cc(C(C)C)c(O)cc2O)c1-c1ccc(CN2CCOCC2)cc1 [Luminespib] (partner 0.01 µM) , no commentary.
## Result 0.884

## Task Return value of relative viability for input Cc1csc(=NC2CCCCC2)n1/N=C/c1ccc(O)c(O)c1O [MIM1] + COc1cc2c(Oc3ccc(NC(=O)C4(C(=O)Nc5ccc(F)cc5)CC4)cc3F)ccnc2cc1OCCCN1CCOCC1 [Foretinib] (partner 0.25 µM) , no commentary.
## Result 0.724

## Task Return value of relative viability for input Cc1csc(=NC2CCCCC2)n1/N=C/c1ccc(O)c(O)c1O [MIM1] + CC1(C)CCC(c2ccc(Cl)cc2)=C(CN2CCN(c3ccc(C(=O)NS(=O)(=O)c4ccc(N[C@H](CCN5CCOCC5)CSc5ccccc5)c(S(=O)(=O)C(F)(F)F)c4)cc3)CC2)C1 [Navitoclax] (partner 0.5 µM) , no commentary.
## Result 0.727

## Task Return value of relative viability for input Cc1csc(=NC2CCCCC2)n1/N=C/c1ccc(O)c(O)c1O [MIM1] + C[C@]1(O)C[C@@H](c2nc(-c3ccc4ccc(-c5ccccc5)nc4c3)c3c(N)nccn32)C1 [Linsitinib] (partner 1 µM) , no commentary.
## Result 0.606

###

test system: LCLC-97TM1; assay: relative viability (nuclei count vs DMSO), 5 days (fraction); higher = more cells survive; settings: first compound 0.003162 µM
MEASUREMENT TYPE: relative viability
Lab note: jot down the number only; don't add units.

## Task Report relative viability on LCLC-97TM1 for this entry: Cc1cn(-c2cc(NC(=O)c3ccc(C)c(Nc4nccc(-c5cccnc5)n4)c3)cc(C(F)(F)F)c2)cn1 [Nilotinib] + NC(=O)Nc1cc(-c2cccc(F)c2)sc1C(=O)N[C@H]1CCCNC1 [AZD7762] (partner 0.2 µM)
## Result 0.366

## Task Report relative viability on LCLC-97TM1 for this entry: Cc1cn(-c2cc(NC(=O)c3ccc(C)c(Nc4nccc(-c5cccnc5)n4)c3)cc(C(F)(F)F)c2)cn1 [Nilotinib] + Cc1cc(Nc2cc(N3CCN(C)CC3)nc(Sc3ccc(NC(=O)C4CC4)cc3)n2)n[nH]1 [Tozasertib] (partner 0.1 µM)
## Result 0.254

## Task Report relative viability on LCLC-97TM1 for this entry: Cc1cn(-c2cc(NC(=O)c3ccc(C)c(Nc4nccc(-c5cccnc5)n4)c3)cc(C(F)(F)F)c2)cn1 [Nilotinib] + C[C@@H](Oc1cc(-c2cnn(C3CCNCC3)c2)cnc1N)c1c(Cl)ccc(F)c1Cl [Crizotinib] (partner 1 µM)
## Result 0.328

## Task Report relative viability on LCLC-97TM1 for this entry: Cc1cn(-c2cc(NC(=O)c3ccc(C)c(Nc4nccc(-c5cccnc5)n4)c3)cc(C(F)(F)F)c2)cn1 [Nilotinib] + Nc1nc2[nH]cc(CCc3ccc(C(=O)N[C@@H](CCC(=O)O)C(=O)O)cc3)c2c(=O)[nH]1 [Pemetrexed] (partner 0.2 µM)
## Result 0.165

###

Can you tell me relative viability for the items I'm about to list?
system: SK-MES-1; assay: relative viability (nuclei count vs DMSO), 5 days (fraction); higher = more cells survive; details: first compound 0.01 µM
Lab note: jot down the number only; don't add units.

## Task Return value of relative viability for input Cc1cn(-c2cc(NC(=O)c3ccc(C)c(Nc4nccc(-c5cccnc5)n4)c3)cc(C(F)(F)F)c2)cn1 [Nilotinib] + CS(=O)(=O)N1CCN(Cc2cc3nc(-c4cccc5[nH]ncc45)nc(N4CCOCC4)c3s2)CC1 [Pictilisib] (partner 1 µM) , no commentary.
## Result 0.424

## Task Return value of relative viability for input Cc1cn(-c2cc(NC(=O)c3ccc(C)c(Nc4nccc(-c5cccnc5)n4)c3)cc(C(F)(F)F)c2)cn1 [Nilotinib] + CC(=O)c1c(C)c2cnc(Nc3ccc(N4CCNCC4)cn3)nc2n(C2CCCC2)c1=O [Palbociclib] (partner 0.5 µM) , no commentary.
## Result 0.313

## Task Return value of relative viability for input Cc1cn(-c2cc(NC(=O)c3ccc(C)c(Nc4nccc(-c5cccnc5)n4)c3)cc(C(F)(F)F)c2)cn1 [Nilotinib] + Cc1nc(Nc2ncc(C(=O)Nc3c(C)cccc3Cl)s2)cc(N2CCN(CCO)CC2)n1 [Dasatinib] (partner 0.075 µM) , no commentary.
## Result 0.308

## Task Return value of relative viability for input Cc1cn(-c2cc(NC(=O)c3ccc(C)c(Nc4nccc(-c5cccnc5)n4)c3)cc(C(F)(F)F)c2)cn1 [Nilotinib] + Nc1ncn([C@H]2C[C@H](O)[C@@H](CO)O2)c(=O)n1 [Decitabine] (partner 2 µM) , no commentary.
## Result 0.575
